The reported numbers originate from PubChem BioAssay (NCI).

# TGI values compiled below
- Test system: RXF-631 renal
- assay-remarks: NCI tumour cell line growth inhibition, 48 h

[
  {
    "compound": "N#CCCN(CCC#N)c1ccc(C=Nc2ccc(F)cc2)cc1",
    "TGI": "> 100 µM"
  },
  {
    "compound": "COc1ccc(-c2cc(-c3ccco3)c(C#N)c(=O)[nH]2)cc1",
    "TGI": "> 100 µM"
  },
  {
    "compound": "Cc1nc(-n2nc(-c3ccccc3)cc2-c2ccccc2)sc1C(=O)/C=C/c1ccccc1",
    "TGI": "> 100 µM"
  },
  {
    "compound": "CCOc1ccccc1NC(=O)C1=C(C)NC(C)=C(C(=O)Nc2ccccc2OCC)C1c1ccc([N+](=O)[O-])cc1",
    "TGI": "> 100 µM"
  },
  {
    "compound": "O=NN(CCCl)C(=O)NC1CCCCC1",
    "TGI": "132 µM"
  },
  {
    "compound": "NNC(=O)N/N=C1\\CN(c2ccc(Cl)cc2Cl)C(=O)C(=O)C1c1nc2ccccc2o1 (stereo not drawn)",
    "TGI": "> 100 µM"
  },
  {
    "compound": "COc1cc([C@@H]2Oc3cc4oc(-c5ccccc5)cc(=O)c4c(O)c3O[C@H]2OC)ccc1O",
    "TGI": "32.6 µM"
  },
  {
    "compound": "COC(=O)c1sc(=NC(=S)N2CCCCC2)sc1C(=O)OC",
    "TGI": "> 100 µM"
  }
]
